Catalogue of compounds with associated growth
- Test system: UACC-257 melanoma
- Assay Explanation: NCI-60 one-dose screen, 48 h (100 = growth as untreated, 0 = no growth, -100 = all killed)
- Condition Label: 10 µM
About 83,000 compounds went through this panel and 20% of them were active in at least one assay; those are over-represented in the sample as a whole.
Form entry: value (%) — number only.

{"columns": ["Compound", "Measured Number"],
 "data": [
  ["O=c1c2ccccc2nc(COc2ccccc2)n1/N=C/C=C/c1ccccc1", 95.3],
  ["O=C(Cn1cc(CN2C(=O)c3ccc([N+](=O)[O-])cc3C2=O)nn1)Nc1ccc(F)cc1Cl", 97.8]
]}

Problem: Tell us which growth value is on record for C#Cc1ccc(NC(=O)c2ccc(/C=C/C(=O)c3nccn3C)cc2)c(F)c1
Result: 64.7

Problem: Tell us which growth value is on record for CCC(=O)Nc1ccc(-c2nc(-c3cccc(O)c3)c(-c3ccnc(Br)c3)[nH]2)cc1
Result: 64.1

Problem: Tell us which growth value is on record for COCCC[C@H]1O[C@@](O)([C@H](C)[C@@H]2CC(OC)C(O)/C=C(C)/C=C(C)/C=C(\C)C(OC3O[C@@H](C)[C@H](O)C(O)[C@@H]3O)C(C)/C=C(C)/C=C(OC)/C=C(\C)C(=O)O2)C(OC)C(O)[C@]1(C)O[C@H]1C[C@@H](O)[C@H](O[C@H]2C[C@](C)(O)[C@H](O)C(C)O2)C(C)O1 (stereo partly specified)
Result: 3.39

Problem: Tell us which growth value is on record for CCN1C(=O)N(CC)C2SC(N/N=C/c3cccs3)=NC21 (stereo unspecified)
Result: 54.2

Problem: Tell us which growth value is on record for COc1cc(/C=C2\SC(=O)NC2=O)ccc1OCC(=O)Nc1ccc(C(=O)/C=C/c2cc3ccccc3nc2Cl)cc1
Result: 86.3

Problem: Tell us which growth value is on record for CCOC(=O)C1=C(C)N=C2Sc3ccccc3N2C1c1ccccc1 (stereo unspecified)
Result: 92.6

Problem: Tell us which growth value is on record for Cc1ccc(NC(=O)c2cccc(CN3CCN(C)CC3)c2)cc1Oc1ccc(-c2[nH]nc3ncnc(N)c23)cc1
Result: 75.4

Problem: Tell us which growth value is on record for CS(=O)c1nccc(-c2c(-c3ccc(F)c(OCCc4ccccc4)c3)nc3sccn23)n1 (stereo unspecified)
Result: 28.5

Problem: Tell us which growth value is on record for O=C(Nc1cc(F)cc2cccnc12)c1cnc(N2CCOCC2)cn1
Result: 30.6

====

- Test system: OVCAR-5 ovarian
- Assay Explanation: NCI-60 one-dose screen, 48 h (100 = growth as untreated, 0 = no growth, -100 = all killed)
- Condition Label: 10 µM unless noted
This is part of a sample that, as a whole, favours compounds with a hit. Of some 83,000 tested, about 20% had one in any assay.
Catalogue of molecules with associated growth
Form entry: value (%) — number only.

Problem: Name the recorded growth of COc1ccc(N)cc1C(=O)Nc1cccc(-c2cc(=O)c3c(OC)c(OC)c(OC)cc3o2)c1 , assay system OVCAR-5 ovarian.
Result: 94.8

Problem: Name the recorded growth of C=C(C)C(=O)O[C@H]1C[C@@]2(C)OC(=CC2=O)/C(C)=C\[C@H]2OC(=O)C(=C)[C@H]12 , assay system OVCAR-5 ovarian.
Result: -56.4

Problem: Name the recorded growth of O=S(=O)(Nc1ccc(I)c(Cl)c1)c1ccc(-c2cnc(C3CC3)o2)cc1 , assay system OVCAR-5 ovarian.
Result: 45.2

Problem: Name the recorded growth of COc1ccc(CCN2C(=O)CSC2=S)cc1OC , assay system OVCAR-5 ovarian.
Result: 104

Problem: Name the recorded growth of CS(=O)c1nccc(-c2c(-c3ccc(F)c(OCCc4ccc(F)cc4)c3)nc3sccn23)n1 (configuration not stated) , assay system OVCAR-5 ovarian.
Result: 103

Problem: Name the recorded growth of CCn1c2ccc(/C=N/NS(=O)(=O)CCN(C)C)cc2c2cc(/C=N/NS(=O)(=O)CCN(C)C)ccc21 , assay system OVCAR-5 ovarian.
Result: 100

Problem: Name the recorded growth of CC(C)=CCc1c(O)c(CC=C(C)C)c2c(c1O)C(=O)C1=C[C@@H]3C[C@H]4C(C)(C)O[C@@](C/C=C(\C)C(=O)O)(C3=O)[C@@]14O2 , assay system OVCAR-5 ovarian.
Result: 8.41

====

- System: MDA-MB-435 melanoma
- Assay Explanation: NCI-60 one-dose screen, 48 h (100 = growth as untreated, 0 = no growth, -100 = all killed)
- Condition Label: 10 µM unless noted
Compounds without any hit were thinned out: in the full panel of roughly 83,000, 20% have a hit.
# label = true if growth < 80% else false

As a guide, the following entries are already answered.
{"columns": ["Test Smiles", "Class Name"],
 "data": [
  ["CN1CCN(c2ccc3c(c2)nc(NNC(=O)c2ccncn2)c2cccn23)CC1", "true"],
  ["O=C1c2c(O)cc(O)cc2O[C@@H](c2ccc(O)cc2)[C@@H]1c1c(O)cc(O)c2c(=O)cc(-c3ccc(O)c(O)c3)oc12", "false"],
  ["CS(=O)(=O)c1nccc(-c2c(-c3ccc(F)c(OCCc4ccc(F)cc4)c3)nc3sccn23)n1", "false"],
  ["C=C(C)[C@@H]1CC[C@]2(C(=O)NCCCN(CCC#N)CCC#N)CC[C@]3(C)[C@H](CC[C@@H]4[C@@]5(C)CCC(=O)C(C)(C)[C@@H]5CC[C@]43C)[C@@H]12", "false"],
  ["CC1=CC(=O)CC(C)(C)[C@@]1(O)/C=C/C(C)=C\\C(=O)O", "true"]
]}

Problem: Report whether reported growth is lower than 80% (strictly) for COc1ccc(Cn2cc3c(c2-c2ccccc2)CCCc2cnoc2-3)cc1
Result: true

Problem: Report whether reported growth is lower than 80% (strictly) for O=C(Nc1cc(F)cc2cccnc12)c1cnc(N2CCOCC2)cn1
Result: false

====

Catalogue of compounds with associated growth
- Test system: NCI-H460 lung
- Assay Explanation: NCI-60 one-dose screen, 48 h (100 = growth as untreated, 0 = no growth, -100 = all killed)
- Condition Label: 10 µM unless noted
About 83,000 compounds went through this panel and 20% of them were active in at least one assay; those are over-represented in the sample as a whole.
Form entry: value (%) — number only.

Problem: Tell us which growth value is on record for O=C(NCCNc1cc(-c2cn(-c3ccccc3)nc2-c2cccc(O)c2)ccn1)Nc1ccc(Cl)c(C(F)(F)F)c1
Result: 58.5

Problem: Tell us which growth value is on record for Cc1ccc(-c2cc3nc(C(Cl)Cl)nc(-c4ccccc4)n3n2)cc1
Result: 46.9

Problem: Tell us which growth value is on record for Cc1nn(-c2ccc(Cl)cc2)c(C)c1N=Nc1ccc2oc(=O)ccc2c1
Result: 64.9

Problem: Tell us which growth value is on record for O=C(CCCCCCN1CC(=O)N2[C@@H](c3cc(F)cc(F)c3)c3[nH]c4ccccc4c3C[C@H]2C1=O)NO
Result: 64.4

Problem: Tell us which growth value is on record for COc1ccccc1/C=C/C(=O)c1nnn(-c2ccc(C(=O)O)cc2)c1C
Result: 96.1

Problem: Tell us which growth value is on record for COc1ccc(N2C(=O)c3cc(OC)c(OC)cc3NC2SCc2ccccc2)cc1 (configuration not stated)
Result: 122

Problem: Tell us which growth value is on record for O=C(/C=C/Nc1ccc(S(=O)(=O)O)cc1)c1ccc(F)cc1
Result: 101

====

Catalogue of compounds with associated growth
- Tested on: HOP-92 NSCLC
- Assay Explanation: NCI-60 one-dose screen, 48 h (100 = growth as untreated, 0 = no growth, -100 = all killed)
- Condition Label: 10 µM unless noted
This is part of a sample that, as a whole, favours compounds with a hit. Of some 83,000 tested, about 20% had one in any assay.
Form entry: value (%) — number only.

Problem: Tell us which growth value is on record for C=CCn1c(SCC(=O)Nc2cccc(C(=O)/C=C/c3ccc(C)cc3)c2)nc2ccccc2c1=O
Result: 103

Problem: Tell us which growth value is on record for Cc1ccc(NC(=O)c2cc(/C=C/C(=O)NO)cc(C(F)(F)F)c2)cc1Nc1nccc(-c2cccnc2)n1
Result: -30.6

Problem: Tell us which growth value is on record for CC(=O)Nc1nc2c(s1)C1=CC[C@H]3[C@@H]4CC[C@H](C(C)=O)[C@@]4(C)CC[C@@H]3[C@@]1(C)CC2
Result: 105

Problem: Tell us which growth value is on record for O=c1[nH]c(CCl)nc2c1cnn2-c1ccccc1
Result: 101

Problem: Tell us which growth value is on record for COc1cc2c3c(n(CCCN4CCCCC4)c(=O)c2cc1OC)-c1cc2c(cc1C3=O)OCO2
Result: -77.4

Problem: Tell us which growth value is on record for COc1cc(/C=N/n2cnc3oc(-c4ccccc4)cc3c2=N)cc(CN2CCCCC2)c1O
Result: 86.2

Problem: Tell us which growth value is on record for COCCC[C@H]1O[C@@](O)([C@H](C)[C@@H]2CC(OC)C(O)/C=C(C)/C=C(C)/C=C(\C)C(OC3O[C@@H](C)[C@H](O)C(O)[C@@H]3O)C(C)/C=C(C)/C=C(OC)/C=C(\C)C(=O)O2)C(OC)C(O)[C@]1(C)O[C@H]1C[C@@H](O)[C@H](O[C@H]2C[C@](C)(O)[C@H](O)C(C)O2)C(C)O1 (stereo partly drawn)
Result: 88.2

Problem: Tell us which growth value is on record for O=c1oc2ccc(-c3ccc(F)cc3F)cc2c(=O)n1-c1ccc(F)c(F)c1
Result: -21.4
